Tested on: LOC_OS03G27990-cb004;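 further: purified Escherichia coli-expressed rice kinase domain construct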
Experiment: thermal shift delta Tm vs DMSO control; higher = stronger stabilization (binding)
Conditions: 12.5 µM; protein concentration 2 µM
MEASURED_PARAMETER: thermal shift delta Tm
Quote the value and follow it with the unit of measurement.

What reported thermal shift delta Tm corresponds to `CCNC(=O)Nc1ccc(-c2nc(N3CCOC[C@@H]3C)c3c(n2)C(C)(C)S(=O)(=O)C3)cc1` on LOC_OS03G27990-cb004?
0.16 °C

Requested read-out thermal shift delta Tm, target or system LOC_OS03G27990-cb004, entry `c1ccc(-c2[nH]ncc2-c2ccnc3ccccc23)nc1`;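 further: purified Escherichia coli-expressed rice kinase domain construct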
0.25 °C

Please tell me: thermal shift delta Tm of O=C(Nc1ccccc1C(=O)NC1CCCCNC1=O)c1cc2ccccc2s1 (centres undefined) , system LOC_OS03G27990-cb004?;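 further: purified Escherichia coli-expressed rice kinase domain construct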
0.15 °C

Find thermal shift delta Tm (LOC_OS03G27990-cb004) for the entry CN1CCC(CNc2ccc3ncc(-c4cccc(OC(F)(F)F)c4)n3n2)CC1 [SGI-1776 free base]
0.31 °C

Cited source: the supplement of paper PMC9694430
